tested on: Rattus norvegicus; experiment: Urine volume was measured after 4 hours following oral compound dose of 10 mg/kg in a volume of 10 mL/kg (20% dimethylsulfoxide in 2.5% preboiled starch) in rats deprived with food or water; format: functional
Assign Urine volume to each entry below.
Numbers only, in ml 4hr-1.

Field: example entries. Status: answers known.
>>> reported_result("O=C(Nc1ccc(C(=O)N2Cc3cccn3Cc3ccccc32)cc1)c1ccccc1-c1ccccc1")
21
>>> reported_result("Cc1ccc(F)cc1C(=O)Nc1ccc(C(=O)N2CCc3c[nH]nc3-c3sccc32)c(Cl)c1")
7
>>> reported_result("O=C(Nc1ccc(C(=O)N2CCCCc3sccc32)c(Cl)c1)c1ccccc1-c1ccccc1")
19
>>> reported_result("O=C(Nc1ccc(C(=O)N2Cc3cccn3Cc3ccccc32)c(Cl)c1)c1ccccc1-c1ccccc1")
27
>>> reported_result("O=C(Nc1ccc(C(=O)N2CCCCc3sc(Cl)cc32)c(Cl)c1)c1ccccc1-c1ccccc1")
22
>>> reported_result("Cc1ccc(F)cc1C(=O)Nc1ccc(C(=O)N2Cc3cccn3Cc3ccccc32)c(Cl)c1 [LIXIVAPTAN]")
22
>>> reported_result("Cc1ccccc1C(=O)Nc1ccc(C(=O)N2CCc3cn(C)nc3-c3sccc32)cc1")
3
>>> reported_result("O=C(Nc1ccc(C(=O)N2CCc3c[nH]nc3-c3sccc32)c(Cl)c1)c1ccccc1-c1ccccc1")
27

I have 3 compounds here; please give me Urine volume for each one.
1. O=C(Nc1ccc(C(=O)N2CCc3c[nH]nc3-c3sccc32)cc1)c1ccc(F)cc1Cl
2. O=C(Nc1ccc(C(=O)N2CCCCc3sc(Cl)cc32)cc1)c1ccccc1-c1ccccc1
3. O=C(Nc1ccc(C(=O)N2CCc3c[nH]nc3-c3sccc32)c(Cl)c1)c1cc(Cl)ccc1F

-- reply
[15, 20, 12]

====

molecular target: Vasopressin V2 receptor (Rattus norvegicus); assay: Binding affinity to rat V2 receptor
Sequence (Q00788 whole entry): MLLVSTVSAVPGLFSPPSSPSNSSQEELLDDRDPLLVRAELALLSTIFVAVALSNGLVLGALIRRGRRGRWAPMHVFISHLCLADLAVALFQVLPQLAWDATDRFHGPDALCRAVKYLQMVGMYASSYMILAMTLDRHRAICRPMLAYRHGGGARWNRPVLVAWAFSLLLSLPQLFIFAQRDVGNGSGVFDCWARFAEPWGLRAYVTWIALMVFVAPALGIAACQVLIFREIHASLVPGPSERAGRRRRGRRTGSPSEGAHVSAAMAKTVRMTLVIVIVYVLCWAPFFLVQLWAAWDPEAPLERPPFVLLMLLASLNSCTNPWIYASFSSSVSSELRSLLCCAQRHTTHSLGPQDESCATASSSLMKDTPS
Assign IC50 to each entry below.
Numbers only, in nM.

Field: example entries. Status: answers known.
>>> reported_result("O=C(Nc1ccc(C(=O)N2CCCCc3sc(Cl)cc32)cc1)c1ccccc1-c1ccccc1")
3.2
>>> reported_result("O=C(Nc1ccc(C(=O)N2CCCCc3sccc32)c(Cl)c1)c1ccccc1-c1ccccc1")
1.2
>>> reported_result("Cn1cc2c(n1)-c1sccc1N(C(=O)c1ccc(NC(=O)c3ccc(Cl)cc3Cl)cc1)CC2")
38

-- ask IC50 for Cc1ccccc1C(=O)Nc1ccc(C(=O)N2CCc3cn(C)nc3-c3sccc32)cc1 ?
-- reply 24
